Parameter cytotoxicity at 10 µM: see the listing below.
# experiment-notes: Toxicity liver stage against HepG2, at 10uM
# Type: cell-based
# Design: test concentration 10 uM, cell line HepG2-A16-CD81EGFP
# conditions-used: human, HepG2-A16-CD81EGFP cells; read-out: INHIBITION

>  <molecule>
CCN(CC)C(CNS(=O)(=O)NCc1ccccc1)c1ccco1 (stereo not given)

>  <cytotoxicity at 10 µM / %>
1.53

$$$$
>  <molecule>
CN1CCN(C[C@@H]2CN(C(=O)NCC3CCCCC3)C[C@@H]2CO)CC1

>  <cytotoxicity at 10 µM / %>
-9.18

$$$$
>  <molecule>
CC(NC(=O)NCc1ccoc1)c1ccc2c(c1)CC(=O)N2 (stereo not given)

>  <cytotoxicity at 10 µM / %>
-1.82

$$$$
>  <molecule>
CCN1CC[C@@]2(C(=O)N(C)C)CCN(C(=O)NC(C)C)CC[C@@H]12

>  <cytotoxicity at 10 µM / %>
-15.2

$$$$
>  <molecule>
CSCC[C@H](N)c1nnc(SCc2cc(C)ccc2C)o1

>  <cytotoxicity at 10 µM / %>
0.0308

$$$$

----------
This section presents molecules with their documented cytotoxicity at 10 µM values.
# experiment-notes: Toxicity liver stage against HepG2, at 10uM
# Format: cell-based
# Set-up: test concentration 10 uM, cell line HepG2-A16-CD81EGFP
# conditions-used: human, HepG2-A16-CD81EGFP cells; read-out: INHIBITION

>  <molecule>
CN(CCCOc1ccccc1)C(=O)CN1CCc2cncnc2C1

>  <cytotoxicity at 10 µM, %>
-2.06

$$$$
>  <molecule>
CCNC(=O)c1cc(OC)c2cc(F)cc(C)c2n1

>  <cytotoxicity at 10 µM, %>
-3.42

$$$$
>  <molecule>
Cc1oc(C)c(C(=O)NS(=O)(=O)c2ccc3c(c2)OCCO3)c1Br

>  <cytotoxicity at 10 µM, %>
4.4

$$$$
>  <molecule>
O=C1CCC(c2ccc(Cl)cc2)=NN1CN1CCSCC1

>  <cytotoxicity at 10 µM, %>
34.4

$$$$
>  <molecule>
CNC(=O)CN(C(=O)c1ccc(SC)o1)c1cccc(F)c1

>  <cytotoxicity at 10 µM, %>
10.3

$$$$
>  <molecule>
Cc1cc(C(=O)N2CCCC2c2nc(O)cc(C(C)C)n2)on1 (centres undefined)

>  <cytotoxicity at 10 µM, %>
-3.42

$$$$
>  <molecule>
Cc1ccc(S(=O)(=O)NC[C@H]2OC[C@@H](NCc3cccs3)[C@@H]2O)cc1

>  <cytotoxicity at 10 µM, %>
-3.24

$$$$
>  <molecule>
O=c1[nH]c(-c2ccc(Cl)cc2)nc2c1CCNC2

>  <cytotoxicity at 10 µM, %>
4.42

$$$$
>  <molecule>
O=C(CC1CC1)NCc1cn2c(n1)CN(Cc1nccs1)CC2

>  <cytotoxicity at 10 µM, %>
-74.1

$$$$
>  <molecule>
CC(C)NC(=O)N[C@H]1C[C@@H](c2nc(-c3ccncc3)no2)N(C)C1

>  <cytotoxicity at 10 µM, %>
-2.8

$$$$
>  <molecule>
CC(C)(C)c1cnc(CNCC2CCCN2c2cccnn2)o1 (centres undefined)

>  <cytotoxicity at 10 µM, %>
-2.2

$$$$
>  <molecule>
CNc1cncc(C2CCCN2C(=O)CCn2ccnc2)n1 (centres undefined)

>  <cytotoxicity at 10 µM, %>
3.91

$$$$
>  <molecule>
COc1cc(NC(=O)CCn2nc(-c3cccs3)oc2=O)cc(OC)c1

>  <cytotoxicity at 10 µM, %>
2.9

$$$$
>  <molecule>
Cc1nc2c(c(NC3CCN(Cc4cccnc4)CC3)n1)CCNCC2

>  <cytotoxicity at 10 µM, %>
-1.14

$$$$
